- run_description: ATG_GLI_CIS: Attagene CIS-FACTORIAL HepG2 Assay for human Zinc Finger Protein GLI1 (AID 2282945)
- measurement_context: HepG2, Attagene cis-factorial reporter mRNA, GLI element; actives raise or lower the signal
Active and inactive are the calls of the source. The calls were made as follows: active = hit-call score of the fitted dose curve at least 0.9, where 1 is the maximum; inactive = score below 0.9.
metric: AC50

Sample records with AC50:
> print(dat)
                                   compound  metric  assay.result
1                       COC(=O)/C=C\C(=O)OC    AC50      inactive
2   C=C(C)C(=O)OCC1CCCO1 (stereo not drawn)    AC50      inactive
3  CCCCCCC(O)CCCCCCCCCCC(=O)OC (stereo not drawn)    AC50      inactive
4                          CN(C)N=Nc1ccccc1    AC50      inactive
5                                 CCC(C)=NO    AC50      inactive

# map each compound to its AC50
1. CCOC(=O)CC(=O)OCC
2. O=[N+]([O-])c1ccc2nc[nH]c2c1
3. CN1CCCC1

Ans.
1: inactive; 2: inactive; 3: inactive

###

- target: Cellular tumor antigen p53 (Homo sapiens) (UniProt P04637)
- Sequence (P04637 whole entry, looked up): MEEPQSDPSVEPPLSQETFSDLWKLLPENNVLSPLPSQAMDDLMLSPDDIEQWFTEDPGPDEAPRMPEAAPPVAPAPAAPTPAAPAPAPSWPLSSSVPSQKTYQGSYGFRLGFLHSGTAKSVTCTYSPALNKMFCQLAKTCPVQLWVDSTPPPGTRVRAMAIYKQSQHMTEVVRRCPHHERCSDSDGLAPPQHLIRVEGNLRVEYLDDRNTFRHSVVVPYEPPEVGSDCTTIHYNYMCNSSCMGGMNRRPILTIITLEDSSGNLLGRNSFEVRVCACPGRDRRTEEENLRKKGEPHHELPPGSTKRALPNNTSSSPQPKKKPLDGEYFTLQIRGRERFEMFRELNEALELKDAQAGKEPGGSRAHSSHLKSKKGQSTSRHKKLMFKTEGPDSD
- run_description: TOX21_p53_BLA_p3_ratio: Tox21 HCT-116 p53 Agonism Beta-lactamase Assay, Ratio, Phase 3 (AID 2283596)
Inconclusive results are not listed. The source made the active and inactive calls. How the source made its calls: active means hit-call score of the fitted dose curve at least 0.9, where 1 is the maximum; inconclusive means response in the unintended direction; inactive means score below 0.9.
metric: outcome

> print(dat)
                                   compound   metric  assay.result
1  CCCNC(C)C(=O)Nc1c(C)csc1C(=O)OC (stereo not drawn)  outcome      inactive
2     CC(C)CCCC(C)NC(C)C (stereo not drawn)  outcome      inactive
3  O.O=C([O-])CC([S-])C(=O)[O-].[Au+].[Na+].[Na+] (stereo not drawn)  outcome      inactive

###

- run_description: ATG_GLI_CIS: Attagene CIS-FACTORIAL HepG2 Assay for human Zinc Finger Protein GLI1 (AID 2282945)
- measurement_context: HepG2, Attagene cis-factorial reporter mRNA, GLI element; actives raise or lower the signal
Activity calls are given as the source filed them. How the source made its calls: active means hit-call score of the fitted dose curve at least 0.9, where 1 is the maximum; inactive means score below 0.9.
A correct response names exactly one class from t = active, f = inactive

Qu. # lookup: test call for `C=CN1CCCCCC1=O`
Ans. f

Qu. Give the logged outcome of this assay for the following compound: `Nc1nnc(-c2ccc([N+](=O)[O-])o2)o1`
Ans. f

Qu. Outcome logged for `CC(=O)OC(C)(C)Cc1ccccc1` in this assay:
Ans. f

Qu. Given `Oc1ccc(Cl)cc1C1CCCC1` , state the outcome it received in this test.
Ans. t

Qu. Which outcome was assigned to `Sc1nc2ccccc2s1` in this test?
Ans. f

Where these numbers come from: PubChem BioAssay (EPA / NIEHS)
